Test system: NSCLC cell lines
test.name: Drug sensitivity (growth inhibition, MTS assay) of epithelial versus mesenchymal NSCLC cell lines
Assay type: cell-based
measurement.conditions: all NSCLC cell lines
test.readout: Fold higher mean IC50 in mesenchymal versus epithelial cell lines (fold)

| smiles.code | readout.number |
| --- | --- |
| Nc1ncnc2c1nc(N)n2[C@@H]1O[C@H](CO)[C@@H](O)[C@H]1O | 1.7 |
| NC1(c2ccc(-c3nc4ccn5c(=O)[nH]nc5c4cc3-c3ccccc3)cc2)CCC1 | 1.5 |
| CS(=O)(=O)N1CCN(Cc2cc3nc(-c4cccc5[nH]ncc45)nc(N4CCOCC4)c3s2)CC1 | 1.9 |
| C#Cc1cccc(Nc2ncnc3cc(OCCOC)c(OCCOC)cc23)c1 | 3.7 |

====

Some molecules, each annotated with its measured IC50.
Tested on: Cells expressing high levels of Axl
test.name: Proliferation of six mesenchymal cell lines expressing high levels of Axl (summary)
Assay type: cell-based
measurement.conditions: single agent, read-out: IC50 range across cell lines

| smiles.code | IC50 |
| --- | --- |
| Cc1c[nH]c2nc(Nc3ccc(N4CCN(C)CC4)c(F)c3)nc(-c3cccc(CC#N)c3)c12 | 0.74 to 4.29 µM |
| C#Cc1cccc(Nc2ncnc3cc(OCCOC)c(OCCOC)cc23)c1 | ≥ 13.5 µM |

====

target.system: AXL (Homo sapiens, UniProt P30530)
Sequence (P30530 26-894): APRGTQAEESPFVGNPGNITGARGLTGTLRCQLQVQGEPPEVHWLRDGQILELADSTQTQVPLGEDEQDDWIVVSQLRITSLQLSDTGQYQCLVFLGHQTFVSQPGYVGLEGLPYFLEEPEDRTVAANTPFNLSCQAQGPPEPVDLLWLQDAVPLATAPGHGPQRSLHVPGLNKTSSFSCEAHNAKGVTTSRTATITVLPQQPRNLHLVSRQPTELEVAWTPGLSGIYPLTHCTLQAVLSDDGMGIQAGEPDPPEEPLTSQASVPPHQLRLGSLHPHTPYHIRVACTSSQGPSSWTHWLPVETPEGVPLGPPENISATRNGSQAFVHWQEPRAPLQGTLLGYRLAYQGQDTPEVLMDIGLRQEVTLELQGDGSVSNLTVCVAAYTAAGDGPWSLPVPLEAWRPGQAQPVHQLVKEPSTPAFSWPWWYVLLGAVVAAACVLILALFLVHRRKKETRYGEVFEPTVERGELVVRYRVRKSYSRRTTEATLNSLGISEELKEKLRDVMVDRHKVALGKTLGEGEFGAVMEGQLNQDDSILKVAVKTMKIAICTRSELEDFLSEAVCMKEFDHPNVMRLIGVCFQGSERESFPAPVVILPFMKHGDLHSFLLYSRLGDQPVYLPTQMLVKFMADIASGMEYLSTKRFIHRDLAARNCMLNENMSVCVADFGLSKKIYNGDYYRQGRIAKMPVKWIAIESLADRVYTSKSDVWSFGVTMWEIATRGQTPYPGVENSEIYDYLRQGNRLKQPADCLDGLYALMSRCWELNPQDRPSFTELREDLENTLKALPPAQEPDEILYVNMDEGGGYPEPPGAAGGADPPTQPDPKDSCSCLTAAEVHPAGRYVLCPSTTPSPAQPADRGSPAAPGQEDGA
test.name: Inhibition of purified recombinant AXL kinase
test.readout: Ki (nM)

| compound | test.readout | readout.number |
| --- | --- | --- |
| Cc1c[nH]c2nc(Nc3ccc(N4CCN(C)CC4)c(F)c3)nc(-c3cccc(CC#N)c3)c12 [SGI-7079] | Ki | 5.7 |
